Where do these numbers come from? They come from patent US11141452.

Target: T1, delta opioid receptor (DOR) (UniProt P41143)
T1 chain: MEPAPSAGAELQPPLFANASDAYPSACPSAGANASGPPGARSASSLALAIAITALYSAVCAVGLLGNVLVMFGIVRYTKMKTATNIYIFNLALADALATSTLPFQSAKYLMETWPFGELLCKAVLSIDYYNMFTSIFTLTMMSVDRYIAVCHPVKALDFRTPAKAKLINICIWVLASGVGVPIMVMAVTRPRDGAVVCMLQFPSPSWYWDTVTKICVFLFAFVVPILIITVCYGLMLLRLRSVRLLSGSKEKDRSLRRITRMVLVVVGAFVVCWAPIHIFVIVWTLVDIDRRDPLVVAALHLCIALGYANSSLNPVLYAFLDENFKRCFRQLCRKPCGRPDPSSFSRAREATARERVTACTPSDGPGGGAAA
Test: competition
Non-standard residues stand in square brackets, D forms with d. No end group written: not given here. *: point of attachment. NMePhe(4-F) = CN[C@@H](Cc1ccc(F)cc1)C(=O)O; Phe(4-F) = N[C@@H](Cc1ccc(F)cc1)C(=O)O; NMeF = CN[C@@H](Cc1ccccc1)C(=O)O; NHBn = c1ccc(CN*)cc1
Please assign 0 whenever Ki is at or above 9 nM, and 1 whenever it is below.

Worked set:
* Y[dA]GFNPLW (not fully specified (C-terminus)) [AKG104] | 0
* Y[dA]G[NMeF]QPLW (not fully specified (C-terminus)) [AKG129] | 1
* Y[dA]G[NMePhe(4-F)]QPLW-NHBn [AKG143] | 1
* Y[dA]GF[dN]PLW-NHBn [AKG102] | 0

Okay, next one:
# input Record Y[dA]G[Phe(4-F)]QPLW-NHBn [AKG142] : is its Ki strictly below 9 nM?
# output 1
